Molecular target: Pfs48/45 D3 (Plasmodium falciparum 3D7, UniProt Q8I6T1)
Sequence (Q8I6T1 287-428): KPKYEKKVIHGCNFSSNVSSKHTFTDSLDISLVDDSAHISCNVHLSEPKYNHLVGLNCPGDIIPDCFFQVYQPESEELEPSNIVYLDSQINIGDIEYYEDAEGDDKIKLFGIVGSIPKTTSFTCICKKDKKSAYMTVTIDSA
Test: ELISA
Settings: both partners purified
measurement.name: binding result

binder	experimental.result
RUPA-100 (antibody, V domains shown, human IgG1; source: recombinant human IgG1, 293T (Protein A purified) or GenScript) VH: QVQLVESGGGVVQPGRSLRLSCAASGFSFSHYGMHWVRQAPGKGLEWVAVISYDGNYKYYGDSVKGRFTISRDNFKNTLYLQMNSLRPEDTAVYYCAKGKAHSCVSTSCYTDFWGQGTLVTVPS VL: SYELTQPPSVSVSPGQTARITCSGDALPKKYAYWYQQKSGQAPVLVIYEDSKRPSGIPERFSGSSSGTMATLTISGAQVEDEGDYYCYSTDSSYNHRGVFGGGTKLTVL	binds
RUPA-89 (antibody, V domains shown, human IgG1; source: recombinant human IgG1, 293T (Protein A purified) or GenScript) VH: DVYLLESGGGLVQPGGSLRLSCAASGFTFSNDAMSWVRQAPGKGLEWVSGILASAPRTYYADSVKGRFIISRDNSKNTLYLQMNSLRVEDTAIYYCAKEGILRPFDPWGQGTLVTVSS VL: QSALTQPASMSGSPGQSITISCTGTSSDVGGFKYVSWYQHHPDKAPKLIIYEVNQRPSGVSNRFSGSKSGNTASLTISGLQAEDEADYYCSSYTSITYHHVFGTGTKVTVL	binds
